Tested on: UACC-62 melanoma
test details: NCI-60 one-dose screen, 48 h (100 = growth as untreated, 0 = no growth, -100 = all killed)
settings: 10 µM unless noted
The panel holds about 83,000 compounds, 20% with a hit somewhere; the sample as a whole holds those more often. Calls of active or inactive are those of the source. How the source made its calls: active means growth percent below 10; inactive means the rest.
parameter measured: growth

1. c1ccc2[nH]c(-c3ccc(OCCCCCOc4ccc(-c5nc6ccccc6[nH]5)cc4)cc3)nc2c1 : 12.8% (inactive)
2. CC(O)CN(CCO)CCN(CCO)CC(C)O (configuration not stated) : 101% (inactive)
3. Cc1nc2c(nnn2-c2ccccc2)c2nc(-c3ccccc3)oc(=O)c12 : 97.2% (inactive)
4. Cc1c(CN(C)C)cc(C(C)C)cc1C(C)C : 106% (inactive)
5. CCOC(=O)C1CCCN1C(=O)C1(NC(C)=O)CCCC1 (configuration not stated) : 121% (inactive)
6. O=C(O)/C(Br)=C/c1c[nH]c2ccc(Br)cc12 : 104% (inactive)
7. CC(=O)CCS(=O)c1ccccc1 (configuration not stated) : 99.6% (inactive)
8. O=C1Nc2ccccc2/C1=C/c1cn(CC(O)Cn2cc(/C=C3\C(=O)Nc4ccccc43)c3ccccc32)c2ccccc12 (configuration not stated) : -75.2% (active)
9. COc1ccc(-n2nnnc2-c2cn[nH]c2C(F)(F)F)cc1 : 83.6% (inactive)
10. Cc1ccc([C@@H]2C[C@H](O)Cc3ccccc3N2)s1 : 117% (inactive)
11. CSC1=Nc2c(c(C)c(-c3ccccc3)n2CCCCl)C2=NC(=O)CN12 : 36.7% (inactive)
12. C=C[C@]1(C)C=C2C(=O)[C@@]3(O)OC[C@@]4(CCCC(C)(C)C43O)C2(O)C(O)C1 (some centres not stated) : 86.3% (inactive)
13. NC(=O)c1c(Nc2ccccc2)nn2cc(-c3nc4ccccc4s3)c(N)nc12 : 97.3% (inactive)
14. COc1cc(OC)c(NC(=O)n2ncc3cc(Nc4ncnc5ccccc45)ccc32)cc1Cl : 105% (inactive)
15. N#CCCCCCCCCCCC#N : 101% (inactive)
16. Cc1c(Cc2ccccc2)c(=O)oc2c(C)c(OCC(=O)n3nc(C#N)cc3N)ccc12 : 99.1% (inactive)
17. CC(=O)NCCN : 102% (inactive)
18. COc1cc2c(/C=C3\C(=O)Nc4ccc(Br)cc43)c(Cl)n(C)c2cc1C : 29.7% (inactive)
19. Nc1nc2c(c3cnccc13)C(c1cccc(Br)c1)Cc1cnccc1-2 (configuration not stated) : 21.8% (inactive)
20. CC(Br)c1nc2ccccc2cc1C(N)=O (configuration not stated) : 93.7% (inactive)
21. COc1cc(OC)c(/C=C/c2ccc3ccccc3[n+]2C)c(OC)c1 : 0.263% (active)
22. O=C(Nc1ccc(-n2cc(-c3ccncc3)c(-c3ccc(Cl)c(O)c3)n2)cc1)c1cc(C(F)(F)F)cc(C(F)(F)F)c1 : 68.5% (inactive)
23. O=C(NCCCl)Nc1nccnc1OCc1ccc(F)cc1 : 93.7% (inactive)
24. CCn1cnc(C[C@H](NC(=O)[C@@H](NC(=O)Nc2cc(C(F)(F)F)cc(C(F)(F)F)c2)C(C)(C)C)C(=O)OC)c1 : -98.7% [100 µM] (active)
25. Ic1ccc(SSc2ccc(I)cc2)cc1 : 97.8% (inactive)
26. N#Cc1ccc(NC2c3ccccc3CC2O)cc1 (configuration not stated) : 99.1% (inactive)
27. COc1ccc(-c2nc(SCC(C)C)nc(Nc3ccc(C)cc3)c2C#N)cc1 : 102% (inactive)
28. Cc1ncc(C(=O)Nc2ccc(CN3CCN(C)CC3)c(C(F)(F)F)c2)cc1C#Cc1c(N)ncc2ccc(F)cc12 : -28.7% (active)
29. COc1ccc(OC)c(Cn2cc3c(c2-c2ccccc2)CCc2cnoc2-3)c1 : 48.1% (inactive)
30. NCCCOc1cc(Cl)ccc1NC(=O)c1cc2ccccc2cc1OCCCN : 26.4% (inactive)
31. O=C(Nc1ccc(-n2cc(-c3ccncc3)c(-c3ccc(Cl)c(O)c3)n2)cc1)Nc1ccc(Cl)c(C(F)(F)F)c1 : -25% (active)
32. C[C@H]1C[C@@H](n2cnc3c(N)nccc32)[C@H](O)[C@@H]1O : 98.7% (inactive)
33. O=C(CCl)NC1c2ccccc2Oc2ccccc21 : 68.1% (inactive)
34. O=C(Nc1ccc(-n2cc(-c3ccncc3)c(-c3ccc(Cl)c(O)c3)n2)cc1)Nc1cc(C(F)(F)F)cc(C(F)(F)F)c1 : 5.53% (active)
35. CCOc1nc(-c2ccccc2)cc2c(O)c(C(=O)N/N=C/c3ccccc3O)[nH]c(=O)c12 : 117% (inactive)
36. COC(=O)c1ccc(C(=Nc2ccc(N(C)C(=O)CN3CCN(C)CC3)cc2)c2c(O)[nH]c3ccc(C(=O)OC)cc23)cc1 : 42.7% (inactive)
37. Nc1nc2c(c3cnccc13)C(c1ccc(Cl)c(Cl)c1)Cc1cnccc1-2 (configuration not stated) : -37.3% (active)
38. COc1nc(OC)nc(-c2cc(-c3cc(OC)c(OC)c(OC)c3)no2)n1 : 97.6% (inactive)
39. COc1ccccc1C(=O)Nc1cccc(-c2cc(=O)c3c(OC)c(OC)c(OC)cc3o2)c1 : 43.1% (inactive)
40. COc1cc2ncnc(-n3ncc4cc(NC(=O)Nc5ccc(Cl)c(Cl)c5)ccc43)c2cc1OC : -68.5% (active)
41. CCN(CCO)CCNc1ccc(C)c2sc3cc(OC)ccc3c(=O)c12 : 98.9% (inactive)
42. CCOc1ccccc1/C=N\N=C(N/N=C/c1ccccc1OCC)N/N=C/c1ccccc1OCC : 16.1% (inactive)

----------
System: A498 renal
test details: NCI-60 one-dose screen, 48 h
settings: 10 µM unless noted
This is part of a sample that, as a whole, favours compounds with a hit. Of some 83,000 tested, about 20% had one in any assay. Active and inactive are the calls of the source. How the source made its calls: active means growth percent below 10; inactive means the rest.
Classes used: active, inactive

1) CCOC(=O)c1ccc2n1CCCc1cnc(NC(C)=O)nc1-2 : inactive
2) CC[C@H](Nc1ncnc2nc[nH]c12)c1nc2cccc(NCc3ccc(C(=O)NO)o3)c2c(=O)n1-c1ccccc1 : inactive
3) OCC(O)C(O)CC1SCCS1 (stereo not given) : inactive
4) CC1=C(C)C(=O)C(C(C)C2=C(C)C(=O)C(C)=C(C)C2=O)=C(C)C1=O : inactive
5) C[C@@H](c1ccc2c(c1)[nH]c1ccc(Cl)cc12)c1nc2ccc(Cl)cc2[nH]1 : inactive
6) CCOC(=O)NC1=NCC(C)(C)S1 : inactive
7) CC1=C[C@@H]2c3c(c(O)c(O)c4oc5cc(O)cc(O)c5c(=O)c34)[C@@H](c3cc(O)c(O)c4oc5cc(O)cc(O)c5c(=O)c34)[C@@H]2C(C)(C)C1 : active
8) O=C(CN1CCN(c2cccc(Cl)c2)CC1)N1CCN(c2nnc(-c3ccc(Cl)cc3)c(-c3ccc(Cl)cc3)n2)CC1 : inactive
9) O=C1N/C(=N\c2nnc(-c3ccc(O)cc3)s2)S/C1=C\c1ccccc1O : inactive
10) Cc1nc(N)sc1C(=O)NCCO : inactive
11) Cc1sc(NC(=O)c2ccc(C(C)(C)C)cc2)c(C(=O)O)c1C : inactive
12) Cc1ccnc2c(NC(C)CCCN)cc(O)c(O)c12 (stereo not given) : inactive
13) CC[C@@H](C)/C=C(C)/C=C/C(=O)c1c(O)c(-c2ccc(OC(=O)[C@@]34CC[C@@](C)(C(=O)O3)C4(C)C)cc2)cn(O)c1=O : inactive
14) O=C(NC(=S)NNC(=S)NNc1ccccc1)c1ccccc1 : inactive
15) CCOC1=C(Cl)C(=O)C(OCC)=C(Cl)C1=O : inactive
16) [N-]=[N+]=Nc1ncc(-c2ccc(C(F)(F)F)cc2)c(NC2CCCCCC2)n1 : inactive
17) CC1=NN(c2cccc(Cl)c2)C(=O)/C1=C\c1cn(-c2nc(N3CCOCC3)nc(N3CCOCC3)n2)c2ccccc12 : inactive
18) CCOC(=O)c1csc(-c2ccc(COC(=O)c3ccccc3)o2)n1 : inactive
19) Cc1cc2c(-c3nc4ccccc4n3C)c(O)c(O)cc2c(O)c1-c1c(C)cc2c(-c3nc4ccccc4n3C)c(O)c(O)cc2c1O : inactive
20) CCC(C)CC(N)O (stereo not given) : inactive

----------
Tested on: HCC-2998 colon
test details: NCI-60 one-dose screen, 48 h
settings: 10 µM unless noted
About 83,000 compounds went through this panel and 20% of them were active in at least one assay; those are over-represented in the sample as a whole. Active and inactive are the calls of the source. Rule for the calls: active = growth percent below 10; inactive = the rest.
Classes used: yes = active, no = inactive

1. CC(C)(C)C(=O)CCCCCCCC/C=C/CCCC(O)c1ccco1 (configuration not stated) : no
2. S=C(N/N=C/c1cc(Cl)cc(Cl)c1)NC12CC3CC(CC(C3)C1)C2 : no
3. O=S(=O)(Cc1cccc2c(CS(=O)(=O)c3ccc(Cl)cc3)cccc12)c1ccc(Cl)cc1 : no
4. Brc1ccc(-c2nc3ccccc3s2)cc1 : no
5. CCCCCCCCC(=O)Nc1ccc(O)cc1 : no
6. CCCNC(=O)Oc1ccc(/C(=C(/C)Cc2ccc(OC)cc2)c2ccc(OCCN3CCCCC3)cc2)cc1 : no
7. COc1cccc2c1n([O-])c1cccc(OC)c1[n+]2=O : yes
8. CC/C(=N\Nc1nc2ccccc2n1C)c1ccccn1 : no
9. CCCCN(CCCC)CC(O)CN(CC)CC (configuration not stated) : no
10. COc1ccc(CN2C(=O)/C(=C\C(=O)c3ccc(OCCN4CCCC4)cc3)c3ccccc32)cc1 : no
11. Cc1nc(N)sc1C(=O)NCCO : no
12. COc1ccc(/C=C2\SC(=O)N(Cc3cc(=O)oc4ccc(OC)cc34)C2=O)cc1 : no
13. CCOC(=O)c1c(C)oc2ncnc(Nc3ccc(NC(=O)Nc4ccc(CC)cc4)cc3)c12 : no
14. CC(=O)Nc1nc(C)c(C(=O)N/N=C/N2CCCCC2)s1 : no
15. COc1ccc(C(=O)NCCNc2nccc(-c3c(-c4ccc(F)cc4)nc4sccn34)n2)cc1 : no
16. O=S(=O)(O)c1ccc2c(c1)Sc1cc(S(=O)(=O)O)ccc1O2 : no
17. CC(Br)c1nc2ccccc2cc1C(N)=O (configuration not stated) : no
18. CC(=O)Nc1nc(C)c(C(=O)NN)s1 : no
19. O=C1Nc2ccccc2/C1=C/c1cn(CC(O)Cn2cc(/C=C3\C(=O)Nc4ccccc43)c3ccccc32)c2ccccc12 (configuration not stated) : yes
20. Clc1ccc(N/N=C/c2ccccn2)nc1 : no
21. CCCNC(=O)Oc1ccc(/C(=C(/CC)Cc2ccccc2)c2ccc(OCCN(CC)CC)cc2)cc1 : no
22. Cc1ccc(C(C)C)c(OCc2ccc(C(=O)N/N=C/c3cccc(O)c3O)cc2)c1 : no

// provenance: PubChem BioAssay (NCI)
